Target: T1, human PXR-GST (Invitrogen) (human) (UniProt O75469)
T1 sequence: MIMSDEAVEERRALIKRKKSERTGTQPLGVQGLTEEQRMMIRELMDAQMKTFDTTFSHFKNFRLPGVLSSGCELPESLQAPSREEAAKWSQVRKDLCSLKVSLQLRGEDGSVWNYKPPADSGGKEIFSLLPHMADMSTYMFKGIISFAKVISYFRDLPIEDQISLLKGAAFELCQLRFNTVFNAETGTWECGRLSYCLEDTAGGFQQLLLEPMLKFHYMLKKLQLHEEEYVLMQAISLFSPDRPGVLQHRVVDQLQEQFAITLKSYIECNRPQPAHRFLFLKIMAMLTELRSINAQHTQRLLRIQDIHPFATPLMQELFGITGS
Test: SPR (Biacore T100), Adnectin series over human PXR-GST captured by anti-GST antibody
pKd: −log10 of the molar value.
recorded_metric: pKd

Some entries whose results are on file:
Adnectin-2 (designed binder) MASTSGVSDVPRDLEVVAATPTSLLISWDAPAVTVNNYRITYQPLLQGSSIQHFDVPGSKSTATISGLKPGVGYQITVYASTYTHSKAYYSLPISIYYRTEGSGSHHHHHH    7.01
Adnectin-7 (designed binder) MGVSDVPRDLEVVTATPTSLLISWDGPKYYVKYYRITYGETGGNSPVQEFTVPRTDHTATISGLKPGVDYTITVYAVKGQYGPYYGSRPISINYRTEIDKPSQHHHHHH    9.51

(1) Adnectin-1 (designed binder) MASTSGSTHYYKGTADLEVVAATPTSLLISWPPPYYVEGVTVFRITYGETGGNSPVQEFTVPYWTETATISGLKPGVDYTITVYAEMYPGSPWAGQVMDIQPISINYRTEGSGSHHHHHH
(2) Adnectin-6 (designed binder) MGVSDVPRDLEVVAATPTSLLISWSRPKGSIKYYRITYGETGGNSPVQEFTVPNSQYTATISGLKPGVDYTITVYAVYGYPYQEPHYYPISINYRTEIDKPSQHHHHHH
Which item exceeds the other in pKd, 1 or 2 ? Answer by quoting the chosen item's label.
2

// provenance: patent US11279751B2
